- TARGET UNDER TEST: active p38 alpha enzyme (Upstate Biotechnology) (Homo sapiens, UniProt Q16539)
- Construct: purchased Upstate Biotechnology
- Sequence (Q16539 whole entry): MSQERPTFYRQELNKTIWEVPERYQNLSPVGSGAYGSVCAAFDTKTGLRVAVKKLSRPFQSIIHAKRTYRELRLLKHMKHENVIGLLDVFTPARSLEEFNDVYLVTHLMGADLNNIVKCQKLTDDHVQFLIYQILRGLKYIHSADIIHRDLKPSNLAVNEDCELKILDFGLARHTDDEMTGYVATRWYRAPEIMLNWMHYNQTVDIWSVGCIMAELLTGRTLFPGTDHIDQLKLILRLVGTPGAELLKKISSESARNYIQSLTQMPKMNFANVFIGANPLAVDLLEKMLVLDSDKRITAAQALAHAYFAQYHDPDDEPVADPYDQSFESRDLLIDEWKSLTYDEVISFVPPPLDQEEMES
- ASSAY DETAILS: p38α biochemical assay (ATP turnover, luminescent detection, Cambrex PKlight)
- TEST CONTEXT: p38α kinase; Table 1 Biological Activity

{"COMPOUND": "CC(C)NC(=O)c1csc(-c2c(-c3ccc(F)cc3)noc2CNCc2ccc(C(C)(C)C)cc2)n1", "IC50": "> 1000 nM"}
{"COMPOUND": "CC(C)NC(=O)c1csc(-c2oc(CNCCCn3ccnc3)nc2-c2ccc(F)cc2)n1", "IC50": "> 1000 nM"}
{"COMPOUND": "CC(C)NC(=O)c1csc(-c2c(-c3ccc(F)cc3)noc2CNc2cnc3ccccc3c2)n1", "IC50": "> 1000 nM"}
{"COMPOUND": "Cc1ccc(NC(=O)c2csc(-c3sc(C)nc3-c3ccc(F)cc3)n2)c(C)c1", "IC50": "> 1000 nM"}
{"COMPOUND": "Cc1nc(-c2ccc(F)cc2)c(-c2nc(C(=O)NCc3ccc(C(C)C)cc3)cs2)s1", "IC50": "> 1000 nM"}
{"COMPOUND": "CC(C)NC(=O)c1csc(-c2c(-c3ccc(F)cc3)noc2CNc2cc(F)c(F)cc2F)n1", "IC50": "> 1000 nM"}
{"COMPOUND": "CCCN(C)Cc1nc(-c2ccc(F)cc2)c(-c2nc(C(=O)NC(C)C)cs2)o1", "IC50": "> 1000 nM"}
{"COMPOUND": "CCOC(=O)C1CCCN(Cc2onc(-c3ccc(F)cc3)c2-c2nc(C(=O)NC(C)C)cs2)C1 (stereo not shown)", "IC50": "> 1000 nM"}
{"COMPOUND": "COc1ccc(-c2ccccc2)cc1NCc1onc(-c2ccc(F)cc2)c1-c1nc(C(=O)NC(C)C)cs1", "IC50": "≤ 1000 nM"}
{"COMPOUND": "Cc1ccnc(NCc2nc(-c3ccc(F)cc3)c(-c3nc(C(=O)NC(C)C)cs3)o2)c1", "IC50": "> 1000 nM"}
{"COMPOUND": "CC(C)NC(=O)c1csc(-c2oc(CNC3CC3)nc2-c2ccc(F)cc2)n1", "IC50": "> 1000 nM"}
{"COMPOUND": "CC(C)NC(=O)c1csc(-c2c(-c3ccc(F)cc3)noc2CNCCN(C)C)n1", "IC50": "> 1000 nM"}
{"COMPOUND": "Cc1nc(-c2ccc(F)cc2)c(-c2nc(C(=O)N3CCN(C(=O)OC(C)(C)C)CC3)cs2)s1", "IC50": "> 1000 nM"}
{"COMPOUND": "Cc1nc(-c2ccc(F)cc2)c(-c2nc(C(=O)NC3CCCCC3C)cs2)s1 (stereo not shown)", "IC50": "≤ 1000 nM"}
{"COMPOUND": "CC(C)NC(=O)c1csc(-c2c(-c3ccc(F)cc3)noc2CN2CCN(c3ccc(O)cc3)CC2)n1", "IC50": "> 1000 nM"}
{"COMPOUND": "Cc1ccc(C)c(CNC(=O)c2csc(-c3c(-c4ccc(F)cc4)n[nH]c3C3CCNCC3)n2)c1", "IC50": "> 1000 nM"}

###

Each entry below carries its recorded pIC50.
- TARGET UNDER TEST: active p38 alpha enzyme (Upstate Biotechnology) (Homo sapiens)
- Construct: purchased Upstate Biotechnology
- ASSAY DETAILS: p38α biochemical assay (ATP turnover, luminescent detection, Cambrex PKlight)
- TEST CONTEXT: p38α biochemical assay, Table 1 Biological Activity
pIC50: −log10 of the molar value.
MEASUREMENT TYPE: pIC50

{"COMPOUND": "CC(C)NC(=O)c1csc(-c2oc(CNC(=O)c3ccnc(Cl)c3)nc2-c2ccc(F)cc2)n1", "TARGET UNDER TEST": "active p38 alpha enzyme (Upstate Biotechnology) (Homo sapiens)", "MEASUREMENT TYPE": "pIC50", "MEASURED": "< 6.00"}
{"COMPOUND": "CC(C)NC(=O)c1csc(-c2oc(CN3CCN(C(=O)c4ccc5cc(O)ccc5c4)CC3)nc2-c2ccc(F)cc2)n1", "TARGET UNDER TEST": "active p38 alpha enzyme (Upstate Biotechnology) (Homo sapiens)", "MEASUREMENT TYPE": "pIC50", "MEASURED": "< 6.00"}
{"COMPOUND": "CC(C)NC(=O)c1csc(-c2oc(CNC(=O)C(Cc3ccccc3)NC(=O)OC(C)(C)C)nc2-c2ccc(F)cc2)n1 (stereo not shown)", "TARGET UNDER TEST": "active p38 alpha enzyme (Upstate Biotechnology) (Homo sapiens)", "MEASUREMENT TYPE": "pIC50", "MEASURED": "≥ 6.00"}
{"COMPOUND": "CC(=O)Oc1cccc(C(=O)N2CCN(Cc3nc(-c4ccc(F)cc4)c(-c4nc(C(=O)NC(C)C)cs4)o3)CC2)c1", "TARGET UNDER TEST": "active p38 alpha enzyme (Upstate Biotechnology) (Homo sapiens)", "MEASUREMENT TYPE": "pIC50", "MEASURED": "≥ 6.00"}
{"COMPOUND": "COc1ccc(OC)c(C(=O)N2CCN(Cc3nc(-c4ccc(F)cc4)c(-c4nc(C(=O)NC(C)C)cs4)o3)CC2)c1", "TARGET UNDER TEST": "active p38 alpha enzyme (Upstate Biotechnology) (Homo sapiens)", "MEASUREMENT TYPE": "pIC50", "MEASURED": "< 6.00"}
{"COMPOUND": "CC(C)NC(=O)c1csc(-c2oc(CN3CCN(C(=O)/C=C/c4ccc(Cl)cc4)CC3)nc2-c2ccc(F)cc2)n1", "TARGET UNDER TEST": "active p38 alpha enzyme (Upstate Biotechnology) (Homo sapiens)", "MEASUREMENT TYPE": "pIC50", "MEASURED": "< 6.00"}
{"COMPOUND": "COc1cc(OC)c(C(=O)N2CCN(Cc3nc(-c4ccc(F)cc4)c(-c4nc(C(=O)NC(C)C)cs4)o3)CC2)cc1OC", "TARGET UNDER TEST": "active p38 alpha enzyme (Upstate Biotechnology) (Homo sapiens)", "MEASUREMENT TYPE": "pIC50", "MEASURED": "≥ 6.00"}
{"COMPOUND": "CC(C)NC(=O)c1csc(-c2c(-c3ccc(F)cc3)noc2CNC(=O)c2ccc(Cl)c([N+](=O)[O-])c2)n1", "TARGET UNDER TEST": "active p38 alpha enzyme (Upstate Biotechnology) (Homo sapiens)", "MEASUREMENT TYPE": "pIC50", "MEASURED": "< 6.00"}
{"COMPOUND": "CC(C)NC(=O)c1csc(-c2oc(CN3CCN(C(=O)c4ccccc4C(=O)c4ccc(O)cc4)CC3)nc2-c2ccc(F)cc2)n1", "TARGET UNDER TEST": "active p38 alpha enzyme (Upstate Biotechnology) (Homo sapiens)", "MEASUREMENT TYPE": "pIC50", "MEASURED": "< 6.00"}
{"COMPOUND": "CC(C)NC(=O)c1csc(-c2c(-c3ccc(F)cc3)noc2CNC(=O)c2cccc(Br)n2)n1", "TARGET UNDER TEST": "active p38 alpha enzyme (Upstate Biotechnology) (Homo sapiens)", "MEASUREMENT TYPE": "pIC50", "MEASURED": "< 6.00"}
{"COMPOUND": "Cc1cc(C(=O)N2CCN(Cc3nc(-c4ccc(F)cc4)c(-c4nc(C(=O)NC(C)C)cs4)o3)CC2)cc(Cl)n1", "TARGET UNDER TEST": "active p38 alpha enzyme (Upstate Biotechnology) (Homo sapiens)", "MEASUREMENT TYPE": "pIC50", "MEASURED": "< 6.00"}
{"COMPOUND": "Cc1onc(-c2ccc(Cl)cc2)c1-c1cc(C)n(C(=O)NC(C)C)n1", "TARGET UNDER TEST": "active p38 alpha enzyme (Upstate Biotechnology) (Homo sapiens)", "MEASUREMENT TYPE": "pIC50", "MEASURED": "≥ 6.00"}
{"COMPOUND": "CC(C)NC(=O)c1csc(-c2oc(CNC(=O)C(NC(=O)OC(C)(C)C)C(C)C)nc2-c2ccc(F)cc2)n1 (stereo not shown) [Example 299]", "TARGET UNDER TEST": "active p38 alpha enzyme (Upstate Biotechnology) (Homo sapiens)", "MEASUREMENT TYPE": "pIC50", "MEASURED": "< 6.00"}
{"COMPOUND": "CC(=O)Nc1cccc(C(=O)NCc2nc(-c3ccc(F)cc3)c(-c3nc(C(=O)NC(C)C)cs3)o2)c1", "TARGET UNDER TEST": "active p38 alpha enzyme (Upstate Biotechnology) (Homo sapiens)", "MEASUREMENT TYPE": "pIC50", "MEASURED": "< 6.00"}
{"COMPOUND": "CC(C)NC(=O)c1csc(-c2oc(CNC(=O)c3ccc(Cl)cc3Cl)nc2-c2ccc(F)cc2)n1", "TARGET UNDER TEST": "active p38 alpha enzyme (Upstate Biotechnology) (Homo sapiens)", "MEASUREMENT TYPE": "pIC50", "MEASURED": "≥ 6.00"}
{"COMPOUND": "CCOc1ccccc1C(=O)NCc1onc(-c2ccc(F)cc2)c1-c1nc(C(=O)NC(C)C)cs1", "TARGET UNDER TEST": "active p38 alpha enzyme (Upstate Biotechnology) (Homo sapiens)", "MEASUREMENT TYPE": "pIC50", "MEASURED": "< 6.00"}
{"COMPOUND": "CC(C)NC(=O)c1csc(-c2oc(CN3CCN(C(=O)c4cc(C(C)C)cc(C(C)C)c4O)CC3)nc2-c2ccc(F)cc2)n1", "TARGET UNDER TEST": "active p38 alpha enzyme (Upstate Biotechnology) (Homo sapiens)", "MEASUREMENT TYPE": "pIC50", "MEASURED": "< 6.00"}
{"COMPOUND": "CC(C)NC(=O)c1csc(-c2oc(CN3CCN(C(=O)c4cc(F)ccc4[N+](=O)[O-])CC3)nc2-c2ccc(F)cc2)n1", "TARGET UNDER TEST": "active p38 alpha enzyme (Upstate Biotechnology) (Homo sapiens)", "MEASUREMENT TYPE": "pIC50", "MEASURED": "< 6.00"}
{"COMPOUND": "COc1cc(C(=O)N2CCN(Cc3nc(-c4ccc(F)cc4)c(-c4nc(C(=O)NC(C)C)cs4)o3)CC2)cc(Cl)n1", "TARGET UNDER TEST": "active p38 alpha enzyme (Upstate Biotechnology) (Homo sapiens)", "MEASUREMENT TYPE": "pIC50", "MEASURED": "< 6.00"}
{"COMPOUND": "Cc1ccc(SCC(=O)N2CCN(Cc3nc(-c4ccc(F)cc4)c(-c4nc(C(=O)NC(C)C)cs4)o3)CC2)cc1", "TARGET UNDER TEST": "active p38 alpha enzyme (Upstate Biotechnology) (Homo sapiens)", "MEASUREMENT TYPE": "pIC50", "MEASURED": "< 6.00"}
{"COMPOUND": "CC(C)NC(=O)c1csc(-c2c(-c3ccc(F)cc3)noc2CNC(=O)c2cc(C(C)C)cc(C(C)C)c2O)n1", "TARGET UNDER TEST": "active p38 alpha enzyme (Upstate Biotechnology) (Homo sapiens)", "MEASUREMENT TYPE": "pIC50", "MEASURED": "< 6.00"}
{"COMPOUND": "CC(C)NC(=O)c1csc(-c2c(-c3ccc(F)cc3)noc2CNC(=O)c2ccc(Oc3ccccc3)cc2)n1", "TARGET UNDER TEST": "active p38 alpha enzyme (Upstate Biotechnology) (Homo sapiens)", "MEASUREMENT TYPE": "pIC50", "MEASURED": "< 6.00"}
{"COMPOUND": "CC(C)CC(=O)NCc1nc(-c2ccc(F)cc2)c(-c2nc(C(=O)NC(C)C)cs2)o1", "TARGET UNDER TEST": "active p38 alpha enzyme (Upstate Biotechnology) (Homo sapiens)", "MEASUREMENT TYPE": "pIC50", "MEASURED": "≥ 6.00"}
{"COMPOUND": "Cc1nc(-c2ccc(F)cc2)c(-c2nc(C(=O)NCc3cccnc3)cs2)s1", "TARGET UNDER TEST": "active p38 alpha enzyme (Upstate Biotechnology) (Homo sapiens)", "MEASUREMENT TYPE": "pIC50", "MEASURED": "≥ 6.00"}
{"COMPOUND": "CC(C)NC(=O)c1csc(-c2oc(CNC(=O)c3ccc([N+](=O)[O-])cc3Cl)nc2-c2ccc(F)cc2)n1", "TARGET UNDER TEST": "active p38 alpha enzyme (Upstate Biotechnology) (Homo sapiens)", "MEASUREMENT TYPE": "pIC50", "MEASURED": "≥ 6.00"}
{"COMPOUND": "CC(C)NC(=O)c1csc(-c2oc(CN3CCN(C(=O)C4CCCN4C(=O)OCc4ccccc4)CC3)nc2-c2ccc(F)cc2)n1 (stereo not shown)", "TARGET UNDER TEST": "active p38 alpha enzyme (Upstate Biotechnology) (Homo sapiens)", "MEASUREMENT TYPE": "pIC50", "MEASURED": "< 6.00"}
{"COMPOUND": "C#CCNC(=O)c1csc(-c2c(-c3ccc(F)cc3)n[nH]c2C)n1", "TARGET UNDER TEST": "active p38 alpha enzyme (Upstate Biotechnology) (Homo sapiens)", "MEASUREMENT TYPE": "pIC50", "MEASURED": "≥ 6.00"}
{"COMPOUND": "CC(C)NC(=O)c1csc(-c2c(-c3ccc(F)cc3)noc2CNC(=O)c2ccc([N+](=O)[O-])cc2Cl)n1", "TARGET UNDER TEST": "active p38 alpha enzyme (Upstate Biotechnology) (Homo sapiens)", "MEASUREMENT TYPE": "pIC50", "MEASURED": "≥ 6.00"}
